tested on: HT29; assay: Cell viability (MTT) assay, 24-h IC50, HT29; format: cell-based, human; settings: Homo sapiens, HT-29, 24 h, read-out: 24-h IC50
pIC50: −log10 of the molar value.
A collection of compounds and their measured pIC50

| compound | pIC50 |
| --- | --- |
| CCOP(=O)(OCC)OCCCCOC(=O)CC1=C(C)/C(=C/c2ccc([S+](C)[O-])cc2)c2ccc(F)cc21 (stereo not shown) [Phospho-sulindac I] | 4.19 |
| CCOP(=O)(OCC)OCCCCOC(=O)CC1=C(C)/C(=C/c2ccc(SC)cc2)c2ccc(F)cc21 [Phospho-sulindac II] | 4.15 |
| CCOP(=O)(OCC)OCCCCOC(=O)C(C)c1ccc(-c2ccccc2)c(F)c1 (stereo not shown) [Phospho-Flurobiprofen] | 4.10 |
| CCOP(=O)(OCC)OCCCCOC(=O)C(C)c1ccc(CC(C)C)cc1 (stereo not shown) [Phospho-Ibuprofen] | 4.09 |
